The measurements presented in this section are drawn from PubChem BioAssay (NCATS).

TEST_SYSTEM: Cellular tumor antigen p53 (Homo sapiens)
PROTOCOL_SUMMARY: Primary qHTS for small molecule compounds that upregulate eGFP-tagged delta133p53alpha (in N-terminal) cells. (AID 2060322);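 further: cells pre-induced with doxycycline then dosed without doxycycline; series mostly up to about 56 µM; 0% = DMSO vehicle and 100% = reference activator; nearly all actives have a fitted effect of over 75% in size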
MEASUREMENT_CONTEXT: NCI-H358 eGFP-delta133p53alpha fluorescence, 24 h; active compounds read high
Records with an inconclusive call do not appear.
PROPERTY: activation (%)
// units = %; emit number, no label

A selection of reference data follows.
*Q* Please look up its activation: NC1CCC(Nc2nc(Nc3ccc(C(=O)N4CCCCC4)cc3)c3ncn(-c4cccc(F)c4)c3n2)CC1 (stereo unspecified)
*A* -1.24

*Q* Fill blank: measured activation of the molecule CC(C)n1c(C=C[C@H](O)C[C@H](O)CC(=O)O)c(-c2ccc(F)cc2)c2ccccc21 is ____.
*A* -24.6

*Q* # get_value(readout='activation', item= COc1cc(NC(=O)c2ccccn2)ccc1Cl )
*A* -5.25

Others:
*Q* Please look up its activation: COc1ccc(OC)c(C(O)CNC(=O)CN)c1 (stereo unspecified)
*A* 8.47

*Q* activation for CN=C(N)NC(=O)Nc1c(C)cccc1C ?
*A* 5.86

*Q* Which activation is reported for this molecule? O=C(C[C@@H]1C(C(=O)O)=CO[C@@H](O[C@@H]2O[C@H](CO)[C@@H](O)[C@H](O)[C@H]2O)/C1=C\CO)OCCc1ccc(O)c(O)c1
*A* -14.3
